Entry source: PubChem BioAssay (NCI)

# Tested on: 786-0 renal
# protocol.details: NCI tumour cell line growth inhibition, 48 h
Please respond with reported TGI for every item in the list.
Numbers only, in µM.

CC1=NNC(N)=N/C1=C\C(Sc1ccc(Cl)cc1)c1ccc(Cl)cc1Cl (stereo not given)    75.9

Answer for every listed entry: what is its TGI? The entries follow.
1. COc1ccc2c(-c3csc(-c4c[nH]c5ccccc45)n3)c[nH]c2c1
2. CCN1CCN(c2nc(NNC(=O)c3cccc(OC)c3)nc(N3CCN(C(c4ccccc4)c4ccccc4)CC3)n2)CC1
3. O=C1/C(=C/c2ccccc2)CN(C(=O)Oc2ccccc2)C/C1=C\c1ccccc1
4. CC(=O)N1C(=O)/C(=C\C(=O)c2ccc(Cl)cc2)c2ccccc21
5. COc1cc2cc(Oc3ccc(NC(=O)Nc4cc(C(F)(F)F)cc(C(F)(F)F)c4)cc3)c(C)nc2cc1OCCN1CCCCC1

1. 18.2
2. 3.58
3. 49.1
4. 15.9
5. 3.25
